System: OVCAR-4 ovarian
Test: NCI-60 one-dose screen, 48 h (100 = growth as untreated, 0 = no growth, -100 = all killed)
Conditions: 10 µM
Method: Growth inhibition of the OVCAR-4 human tumor cell line is measured as a screen for anti-cancer activity. Cells are grown in 96 well plates and exposed to the test compound for 48 hours. Compounds are tested at a single concentration, which is 10^-5 M for most compounds. The reported endpoint is percent growth (GI% or GIPRCNT), where numbers from 0 - 100% represent growth inhibition, and numbers from -100% - 0 represent cell death. For example, a value of 40 represents 60% growth inhibition. […]
The panel holds about 83,000 compounds, 20% with a hit somewhere; the sample as a whole holds those more often.
readout: growth (%)
Dear colleague, please return just the value in %, with no unit written.

Record summary for CC1Cc2c(Cl)ncnc2N(C)c2ccccc21 (stereo not drawn) : reported growth = 21.5

Record summary for `CCn1cc(-c2cc(-c3ccc(Cl)cc3)nc(N)n2)c(-c2ccc(Br)cc2)n1` : reported growth = 82.2

Record summary for `CC(=O)Nc1ccc2nc3ccc(NC(C)=O)cc3[n+](-c3ccccc3)c2c1` : reported growth = 86

Record summary for `O=C1C(Cl)=C(Nc2ccc3cn[nH]c3c2)C(=O)c2ccccc21` : reported growth = -98.9

Record summary for Cc1ccc2c(c1)C(C)Cc1c(Cl)ncnc1N2C (stereo not drawn) : reported growth = 19.5

Continuing:
Record summary for `COc1ccc2c(c1)c(-c1noc(C(=O)c3cn(C)c4ncc(Br)cc34)n1)cn2C` : reported growth = 42.9

Record summary for `COc1cc(C)cc2oc3oc(=N)c(C(=O)c4ccccc4)cc3c(=O)c12` : reported growth = 105

Record summary for `C#C[C@]1(O)CC[C@H]2[C@@H]3CC=C4c5nc(Nc6ccccn6)sc5CC[C@]4(C)[C@H]3CC[C@@]21C` : reported growth = 16.1

Record summary for O=C1CC(c2ccccc2)Cc2nc3ccc(Br)cc3cc21 (stereo not drawn) : reported growth = 47

Record summary for `COc1ccc(-c2cc(-c3ccccc3)nc(SCCCCCC(=O)NO)n2)cc1` : reported growth = 80.1

Record summary for `N=C(N)c1ccc(-c2ccc(-c3ccc(-c4cccs4)s3)s2)cc1F` : reported growth = 90.5

Record summary for `Cc1ccc(S(=O)(=O)Nc2ccccc2)cc1N` : reported growth = 111

Record summary for COc1ccc2nc3c(cc2c1)C(=O)CC(C(F)(F)F)C3 (stereo not drawn) : reported growth = 95.7

Record summary for `O=C1/C(=C/c2ccc(OCc3ccccc3)cc2)Oc2cc(OCCN3CCCCC3)ccc21` : reported growth = 61.2

---

Tested on: RPMI-8226 leukemia
Experiment: NCI-60 one-dose screen, 48 h (100 = growth as untreated, 0 = no growth, -100 = all killed)
Details: 10 µM unless noted
Compounds without any hit were thinned out: in the full panel of roughly 83,000, 20% have a hit. The source made the active and inactive calls. The calls were made as follows: active = growth percent below 10; inactive = the rest.
readout: growth

Record summary for `O=C(NCCCNC(=O)OCc1ccc2c(Br)cc(Br)c(O)c2n1)OCc1ccc2c(Br)cc(Br)c(O)c2n1` : reported growth = -27.3% (active)

Record summary for `O=S(=O)(NCc1ccccc1)c1ncnc2nc[nH]c12` : reported growth = 99.2% (inactive)

Record summary for `O=[N+]([O-])c1cc(CCl)ccc1OCCBr` : reported growth = 93.5% (inactive)

Continuing:
Record summary for `CC(=O)CC(=O)SC1=NCCS1` : reported growth = 98.1% (inactive)

src = PubChem BioAssay (NCI)
